TEST SYSTEM: Human recombinant MMP-9 (Homo sapiens)
Construct: made in house; host or cells: MMP-9-transfected HT1080 cells (spent media)
Sequence (P14780 107-707 limits assumed): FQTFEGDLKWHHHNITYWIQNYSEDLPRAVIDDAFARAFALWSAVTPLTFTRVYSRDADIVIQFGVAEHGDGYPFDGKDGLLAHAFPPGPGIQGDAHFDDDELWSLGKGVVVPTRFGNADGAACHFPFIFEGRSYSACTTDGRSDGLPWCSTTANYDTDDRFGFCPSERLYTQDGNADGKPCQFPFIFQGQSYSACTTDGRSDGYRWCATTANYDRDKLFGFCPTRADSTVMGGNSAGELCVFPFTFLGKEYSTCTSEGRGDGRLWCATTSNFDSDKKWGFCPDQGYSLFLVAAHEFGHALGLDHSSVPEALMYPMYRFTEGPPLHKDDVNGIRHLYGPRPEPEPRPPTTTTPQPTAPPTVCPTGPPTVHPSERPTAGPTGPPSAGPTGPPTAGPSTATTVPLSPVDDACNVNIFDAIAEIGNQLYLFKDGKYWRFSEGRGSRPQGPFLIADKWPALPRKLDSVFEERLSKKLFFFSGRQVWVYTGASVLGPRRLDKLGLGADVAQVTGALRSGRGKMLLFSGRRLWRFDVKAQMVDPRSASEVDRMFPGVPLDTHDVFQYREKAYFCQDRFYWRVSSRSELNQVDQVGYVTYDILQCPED
PROTOCOL NOTES: In vitro MMP inhibition, IC50 determination (fluorogenic substrate I)
Type: biochemical
CONDITIONS: value outside parentheses (Ki in parenthesis)
pIC50: −log10 of the molar value.
Could you please report measured pIC50 for the items listed next?

# lookup: pIC50 of CCCC(CCOc1ccc(S(=O)(=O)C2(C(=O)NO)CCOCC2)cc1)SC (centres unmarked)
6.92

# lookup: pIC50 of COc1ccc(SCCCCOc2ccc(S(=O)(=O)C3(C(=O)NO)CCOCC3)cc2)cc1
< 5.00

# lookup: pIC50 of O=C(NO)C1(S(=O)(=O)c2ccc(OCCCCS(=O)(=O)C3CCCCC3)cc2)CCOCC1
< 5.00

# lookup: pIC50 of O=C(NO)C1(S(=O)(=O)c2ccc(OCCCO)cc2)CCOCC1
7.39

# lookup: pIC50 of COc1ccc(NC(=O)NCCOc2ccc(S(=O)(=O)C3(C(=O)NO)CCOCC3)cc2)cc1
< 5.00

# lookup: pIC50 of CC(C)(COc1ccc(S(=O)(=O)C2(C(=O)NO)CCOCC2)cc1)CSc1ccccc1
< 5.00

# lookup: pIC50 of COc1ccc(-c2nnc(CCCCOc3ccc(S(=O)(=O)C4(C(=O)NO)CCOCC4)cc3)o2)cc1
5.70

# lookup: pIC50 of CCCCOc1ccc(C(=O)NCCCOc2ccc(S(=O)(=O)C3(C(=O)NO)CCOCC3)cc2)cc1
< 5.00

====

TEST SYSTEM: Human recombinant MMP-2 (Homo sapiens)
Construct: made in house; host or cells: MMP-2-transfected p2AHT2 cells
PROTOCOL NOTES: In vitro MMP inhibition, IC50 determination (fluorogenic substrate I)
Assay type: biochemical
CONDITIONS: value outside parenthesis
Response field label: string, one of y (IC50 strictly below 100 nM) or n.

Does the reported IC50 of O=C(NO)C1(S(=O)(=O)c2ccc(OCCCc3cccc(Cc4ccccc4)c3)cc2)CCOCC1 stay below 100 nM?
n

Does the reported IC50 of CN(C(=O)CCCOc1ccc(S(=O)(=O)C2(C(=O)NO)CCOCC2)cc1)c1ccc(OC(F)(F)F)cc1 stay below 100 nM?
n

Does the reported IC50 of O=C(NO)C1(S(=O)(=O)c2ccc(OCCCSc3nc4cc(Cl)ccc4s3)cc2)CCOCC1 stay below 100 nM?
y

Does the reported IC50 of CC(C)CCc1cccc(CCCOc2ccc(S(=O)(=O)C3(C(=O)NO)CCOCC3)cc2)c1 stay below 100 nM?
y

Does the reported IC50 of COCCN1CCC(C(=O)NO)(S(=O)(=O)c2ccc(OCCCc3nc(-c4ccc(CC(C)C)cc4C)no3)cc2)CC1 stay below 100 nM?
n

Does the reported IC50 of COCCN1CCC(C(=O)NO)(S(=O)(=O)c2ccc(OCCCn3nnc(-c4ccc(S(C)(=O)=O)cc4)n3)cc2)CC1 stay below 100 nM?
y

Does the reported IC50 of Cc1ccc(-c2noc(CCCOc3ccc(S(=O)(=O)C4(C(=O)NO)CCOCC4)cc3)n2)c(F)c1 stay below 100 nM?
y

Does the reported IC50 of CCCc1ccc(-c2nc(CCCOc3ccc(S(=O)(=O)C4(C(=O)NO)CCOCC4)cc3)oc2C)cc1 stay below 100 nM?
n

Does the reported IC50 of O=C(NO)C1(S(=O)(=O)c2ccc(OCCOc3cccc(-c4ccccc4)c3)cc2)CCOCC1 stay below 100 nM?
n

Does the reported IC50 of O=C(NCCCOc1ccc(S(=O)(=O)C2(C(=O)NO)CCOCC2)cc1)c1cc2ccccc2o1 stay below 100 nM?
y

Does the reported IC50 of COCCN1CCC(C(=O)NO)(S(=O)(=O)c2ccc(OCCCn3nc(C(F)(F)F)cc3-c3ccc(OC)cc3)cc2)CC1 stay below 100 nM?
n

====

TEST SYSTEM: Human recombinant MMP-2 (Homo sapiens, UniProt P08253)
Construct: made in house; host or cells: MMP-2-transfected p2AHT2 cells
Sequence (P08253 110-660): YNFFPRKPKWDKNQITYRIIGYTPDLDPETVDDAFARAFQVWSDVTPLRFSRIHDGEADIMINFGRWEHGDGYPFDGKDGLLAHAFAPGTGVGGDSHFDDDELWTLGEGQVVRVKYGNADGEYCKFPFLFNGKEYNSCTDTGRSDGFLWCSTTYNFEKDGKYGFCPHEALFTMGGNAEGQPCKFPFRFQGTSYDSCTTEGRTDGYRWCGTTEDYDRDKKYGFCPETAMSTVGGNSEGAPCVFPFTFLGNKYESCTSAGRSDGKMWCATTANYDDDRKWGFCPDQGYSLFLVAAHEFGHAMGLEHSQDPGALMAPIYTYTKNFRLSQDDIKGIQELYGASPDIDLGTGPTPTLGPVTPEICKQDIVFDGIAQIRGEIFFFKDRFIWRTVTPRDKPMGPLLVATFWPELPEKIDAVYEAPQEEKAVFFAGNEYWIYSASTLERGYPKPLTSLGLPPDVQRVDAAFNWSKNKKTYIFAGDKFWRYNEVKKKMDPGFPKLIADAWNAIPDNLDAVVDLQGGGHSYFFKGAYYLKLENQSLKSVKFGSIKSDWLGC
PROTOCOL NOTES: In vitro MMP inhibition, IC50 determination (fluorogenic substrate I)
Assay type: biochemical
CONDITIONS: value outside parenthesis
pIC50: −log10 of the molar value.
pIC50 vs 7: at or above is 1 (yes), below is 0 (no).

Check if pIC50 >= 7 (inclusive). Item: O=C(NCCCOc1ccc(S(=O)(=O)C2(C(=O)NO)CCN(C3CC3)CC2)cc1)c1ccc(OC(F)(F)F)cc1
0 (no)

Check if pIC50 >= 7 (inclusive). Item: O=C(NO)C1(S(=O)(=O)c2ccc(OCCCc3cccc(-c4ccccn4)c3)cc2)CCOCC1 [Example 148]
0 (no)

Check if pIC50 >= 7 (inclusive). Item: O=C(NO)C1(S(=O)(=O)c2ccc(OCCCc3cccc(-c4ccccc4F)c3)cc2)CCOCC1
0 (no)

Check if pIC50 >= 7 (inclusive). Item: CCCCc1ccc(-c2noc(CCCOc3ccc(S(=O)(=O)C4(C(=O)NO)CCOCC4)cc3)n2)c(C)c1
0 (no)

Check if pIC50 >= 7 (inclusive). Item: COCCN1CCC(C(=O)NO)(S(=O)(=O)c2ccc(OCCCn3nnc(-c4ccc5c(c4)OCO5)n3)cc2)CC1
1 (yes)

Check if pIC50 >= 7 (inclusive). Item: O=C(NO)C1(S(=O)(=O)c2ccc(OCCCc3nc(-c4cc(C(F)(F)F)cc(C(F)(F)F)c4)no3)cc2)CCOCC1
0 (no)

Check if pIC50 >= 7 (inclusive). Item: COCCN1CCC(C(=O)NO)(S(=O)(=O)c2ccc(OCCCNC(=O)c3ccc(OC(C)C)c(C)c3)cc2)CC1
0 (no)

Check if pIC50 >= 7 (inclusive). Item: O=C1N(CCCOc2ccc(S(=O)(=O)C3(C(=O)NO)CCOCC3)cc2)CCN1c1ccc(OC(F)(F)F)cc1
0 (no)

Check if pIC50 >= 7 (inclusive). Item: COc1cc(OC)cc(-c2noc(CCCOc3ccc(S(=O)(=O)C4(C(=O)NO)CCOCC4)cc3)n2)c1
1 (yes)

Check if pIC50 >= 7 (inclusive). Item: Cc1ccc(-c2cccc(CCCOc3ccc(S(=O)(=O)C4(C(=O)NO)CCOCC4)cc3)c2)cc1C
0 (no)

Check if pIC50 >= 7 (inclusive). Item: O=C(NO)C1(S(=O)(=O)c2ccc(OCCc3cccc(-c4ccncc4)c3)cc2)CCOCC1
1 (yes)

Check if pIC50 >= 7 (inclusive). Item: COCCN1CCC(C(=O)NO)(S(=O)(=O)c2ccc(OCCCn3nc(C(F)(F)F)cc3C(F)(F)F)cc2)CC1
0 (no)

Check if pIC50 >= 7 (inclusive). Item: O=C(NO)C1(S(=O)(=O)c2ccc(OCCCc3csc(-c4ccccc4)n3)cc2)CCOCC1
1 (yes)

Check if pIC50 >= 7 (inclusive). Item: Cc1cc(-c2cccc(CCCOc3ccc(S(=O)(=O)C4(C(=O)NO)CCOCC4)cc3)c2)ccc1F
0 (no)

Check if pIC50 >= 7 (inclusive). Item: O=C(NO)C1(S(=O)(=O)c2ccc(OCCSc3nc4ccc(Cl)cc4o3)cc2)CCN(C2CC2)CC1
1 (yes)

Check if pIC50 >= 7 (inclusive). Item: CN(C)c1ccc(C(=O)CCCCOc2ccc(S(=O)(=O)C3(C(=O)NO)CCN(C4CC4)CC3)cc2)cc1
1 (yes)

Check if pIC50 >= 7 (inclusive). Item: CC(=O)NC(C)(C)CCOc1ccc(S(=O)(=O)C2(C(=O)NO)CCN(C3CC3)CC2)cc1
0 (no)

Check if pIC50 >= 7 (inclusive). Item: O=C(NO)C1(S(=O)(=O)c2ccc(OCCCc3cccc(-c4cc(Cl)cc(Cl)c4)c3)cc2)CCOCC1
0 (no)

Check if pIC50 >= 7 (inclusive). Item: CC(C)[C@H]1C(=O)N(CCCOc2ccc(S(=O)(=O)C3(C(=O)NO)CCOCC3)cc2)C(=O)N1c1ccccc1
0 (no)

Check if pIC50 >= 7 (inclusive). Item: CC(C)c1ccc(-c2cccc(CCOc3ccc(S(=O)(=O)C4(C(=O)NO)CCOCC4)cc3)c2)cc1
0 (no)

Check if pIC50 >= 7 (inclusive). Item: O=C(NO)C1(S(=O)(=O)c2ccc(OCCCSc3nc4ccccc4o3)cc2)CCN(C2CC2)CC1
1 (yes)

====

TEST SYSTEM: Human recombinant MMP-1 (Homo sapiens, UniProt P03956)
Construct: made in house; host or cells: MMP-1-transfected HT-1080 cells (spent media)
Sequence (P03956 100-469): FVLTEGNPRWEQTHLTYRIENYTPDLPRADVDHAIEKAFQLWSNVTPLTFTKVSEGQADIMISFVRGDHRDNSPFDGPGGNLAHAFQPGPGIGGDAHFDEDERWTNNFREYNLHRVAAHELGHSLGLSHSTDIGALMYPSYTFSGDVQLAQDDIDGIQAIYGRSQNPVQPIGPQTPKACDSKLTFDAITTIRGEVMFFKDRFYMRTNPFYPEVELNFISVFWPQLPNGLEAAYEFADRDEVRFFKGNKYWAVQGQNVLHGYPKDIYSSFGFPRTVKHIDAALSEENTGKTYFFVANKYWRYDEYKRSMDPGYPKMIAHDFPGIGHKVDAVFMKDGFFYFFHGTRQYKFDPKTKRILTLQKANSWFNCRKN
PROTOCOL NOTES: In vitro MMP inhibition, IC50 determination (fluorogenic substrate I)
Type: biochemical
CONDITIONS: value outside parenthesis
QUANTITY KIND: IC50

# lookup: IC50 of O=C(NO)C1(S(=O)(=O)c2ccc(OCCc3cccc(-c4ccncc4)c3)cc2)CCOCC1
> 10 µM

# lookup: IC50 of CC[C@@H]1C(=O)N(CCCOc2ccc(S(=O)(=O)C3(C(=O)NO)CCOCC3)cc2)C(=O)N1c1ccccc1
> 10 µM

# lookup: IC50 of O=C(NO)C1(S(=O)(=O)c2ccc(OCCCc3nc(-c4cccc(Cl)c4Cl)no3)cc2)CCOCC1
> 10 µM

# lookup: IC50 of O=C(NO)C1(S(=O)(=O)c2ccc(OCCCc3nnc(Cl)o3)cc2)CCOCC1
3.25 µM

# lookup: IC50 of COc1ccccc1-c1nnc(CCCOc2ccc(S(=O)(=O)C3(C(=O)NO)CCOCC3)cc2)o1
> 10 µM

# lookup: IC50 of COCCN1CCC(C(=O)NO)(S(=O)(=O)c2ccc(OCCCc3nnc(-c4ccccc4C(F)(F)F)o3)cc2)CC1
> 10 µM

# lookup: IC50 of O=C(NO)C1(S(=O)(=O)c2ccc(OCCCc3nnc(-c4ccc(Cl)cc4)o3)cc2)CCOCC1
1.16 µM

# lookup: IC50 of CCOc1ccc(-c2noc(CCCOc3ccc(S(=O)(=O)C4(C(=O)NO)CCN(C5CC5)CC4)cc3)n2)cc1
> 10 µM

# lookup: IC50 of O=C(NO)C1(S(=O)(=O)c2ccc(OCCCc3nc(-c4cc(F)ccc4F)no3)cc2)CCOCC1
9.65 µM
